Listing of entries alongside the reported clearance.
# Experiment: in vivo
# Details: rat
# Description: In vivo clearance in rat.

Compound	clearance
C/C(=C\c1ccc(OCCN2CCOCC2)cc1)c1ccc2c(c1)C(C)(C)CCC2(C)C [MOFAROTENE]	16 mL/min/kg
COc1ccc([C@@H]2Sc3ccccc3N(CCN(C)C)C(=O)[C@@H]2OC(C)=O)cc1 [DILTIAZEM]	87.2 mL/min/kg
Cc1ncc2n1-c1ccc(Cl)cc1C(c1ccccc1F)=NC2 [MIDAZOLAM]	130 mL/min/kg
COCC(=O)O[C@]1(CCN(C)CCCc2nc3ccccc3[nH]2)CCc2cc(F)ccc2[C@@H]1C(C)C [MIBEFRADIL]	94 mL/min/kg
COc1ccccc1Oc1c(NS(=O)(=O)c2ccc(C(C)(C)C)cc2)nc(-c2ncccn2)nc1OCCO [BOSENTAN]	55 mL/min/kg

* * *

Listing of entries alongside the reported clearance.
# Experiment: in vivo
# Details: dog

Molecule	clearance
C=CCN1CC[C@]23c4c5ccc(O)c4O[C@H]2C(=O)CC[C@@]3(O)[C@H]1C5	42.5 mL/min/kg
O=C1Nc2ccc(Cl)cc2C(c2ccccc2Cl)=NC1O (centres undefined)	26.1 mL/min/kg
Cc1ccc(C(=O)c2cc(O)c(O)c([N+](=O)[O-])c2)cc1	3.3 mL/min/kg
CC(C)(C)S(=O)(=O)C[C@@H](Cc1ccccc1)C(=O)N[C@@H](Cc1cnc[nH]1)C(=O)N[C@@H](CC1CCCCC1)[C@@H](O)[C@@H](O)C1CC1	3 mL/min/kg
COC(=O)C1=C(C#N)NC(C)=C(C(=O)OC(C)C)C1c1cccc([N+](=O)[O-])c1 (centres undefined)	15.3 mL/min/kg
Cn1c(=O)c2c(ncn2C)n(C)c1=O	2.6 mL/min/kg
CCOC(=O)C1=C(C)NC(C)=C(C(=O)OC)C1c1cccc([N+](=O)[O-])c1 (centres undefined)	21.7 mL/min/kg
Cn1c(=O)c2[nH]cnc2n(C)c1=O.O	1.5 mL/min/kg
Cc1cc(=O)n(-c2ccccc2)n1C [ANTIPYRINE]	4.9 mL/min/kg

* * *

Listing of entries alongside the reported clearance.
# Species: Rattus norvegicus
# Details: hepatocytes
# Description: In vitro clearance in rat in 1000000 cells

Molecule	clearance (µL/min)
CCOC(=O)C1=C(C)NC(C)=C(C(=O)OC)C1c1cccc([N+](=O)[O-])c1 (stereo not drawn)	24
Cc1ncc2n1-c1ccc(Cl)cc1C(c1ccccc1F)=NC2	16.7
Cn1c(=O)c2[nH]cnc2n(C)c1=O.O	0.2
COCC(=O)O[C@]1(CCN(C)CCCc2nc3ccccc3[nH]2)CCc2cc(F)ccc2[C@@H]1C(C)C	5.4
O=C1Nc2ccc(Cl)cc2C(c2ccccc2Cl)=NC1O (stereo not drawn)	3.8
COc1ccccc1Oc1c(NS(=O)(=O)c2ccc(C(C)(C)C)cc2)nc(-c2ncccn2)nc1OCCO	1.3
CC(C)(C)S(=O)(=O)C[C@@H](Cc1ccccc1)C(=O)N[C@@H](Cc1cnc[nH]1)C(=O)N[C@@H](CC1CCCCC1)[C@@H](O)[C@@H](O)C1CC1	16.6
Cc1ccc(C(=O)c2cc(O)c(O)c([N+](=O)[O-])c2)cc1	2.6

* * *

# Species on record: Homo sapiens
# Details: hepatocytes
# Description: In vitro clearance in human in 1000000 cells
Returns: string. Value is class 1 if measured clearance is below 0.9 µL/min, and class 0 if it is greater than or equal to it.

Compound	Category
Cc1cc(=O)n(-c2ccccc2)n1C [ANTIPYRINE]	class 1
COc1ccc([C@@H]2Sc3ccccc3N(CCN(C)C)C(=O)[C@@H]2OC(C)=O)cc1 [DILTIAZEM]	class 0
Cn1c(=O)c2c(ncn2C)n(C)c1=O [CAFFEINE]	class 1
C=CCN1CC[C@]23c4c5ccc(O)c4O[C@H]2C(=O)CC[C@@]3(O)[C@H]1C5 [NALOXONE]	class 0
CCOC(=O)C1=C(C)NC(C)=C(C(=O)OC)C1c1cccc([N+](=O)[O-])c1 (stereo unspecified) [NITRENDIPINE]	class 0

* * *

Listing of entries alongside the reported clearance.
# Experiment: clinical
# Details: human, in vivo
# Description: In vivo clearance in human.

Compound	Units	clearance
COc1ccccc1Oc1c(NS(=O)(=O)c2ccc(C(C)(C)C)cc2)nc(-c2ncccn2)nc1OCCO [BOSENTAN]	mL/min/kg	3.7
Cc1ncc2n1-c1ccc(Cl)cc1C(c1ccccc1F)=NC2 [MIDAZOLAM]	mL/min/kg	11
C/C(=C\c1ccc(OCCN2CCOCC2)cc1)c1ccc2c(c1)C(C)(C)CCC2(C)C [MOFAROTENE]	mL/min/kg	11
COCC(=O)O[C@]1(CCN(C)CCCc2nc3ccccc3[nH]2)CCc2cc(F)ccc2[C@@H]1C(C)C [MIBEFRADIL]	mL/min/kg	7

* * *

# Experiment: in vivo
# Details: dog
# Description: In vivo clearance in dog.

Mol	clearance [mL/min/kg]
COCC(=O)O[C@]1(CCN(C)CCCc2nc3ccccc3[nH]2)CCc2cc(F)ccc2[C@@H]1C(C)C	36
COc1ccc([C@@H]2Sc3ccccc3N(CCN(C)C)C(=O)[C@@H]2OC(C)=O)cc1	46.1
C/C(=C\c1ccc(OCCN2CCOCC2)cc1)c1ccc2c(c1)C(C)(C)CCC2(C)C	5.8
COc1ccccc1Oc1c(NS(=O)(=O)c2ccc(C(C)(C)C)cc2)nc(-c2ncccn2)nc1OCCO	1.9

* * *

Listing of entries alongside the reported log10 clearance.
# Organism: Canis familiaris
# Details: dog, hepatocytes
# Description: In vitro clearance in dog in 1000000 cells
Reported property: log10 clearance (log10 of the value in µL/min)

Compound	log10 clearance
COc1ccccc1Oc1c(NS(=O)(=O)c2ccc(C(C)(C)C)cc2)nc(-c2ncccn2)nc1OCCO [BOSENTAN]	-0.70
COCC(=O)O[C@]1(CCN(C)CCCc2nc3ccccc3[nH]2)CCc2cc(F)ccc2[C@@H]1C(C)C [MIBEFRADIL]	0.79
C=CCN1CC[C@]23c4c5ccc(O)c4O[C@H]2C(=O)CC[C@@]3(O)[C@H]1C5 [NALOXONE]	1.51
COC(=O)C1=C(C#N)NC(C)=C(C(=O)OC(C)C)C1c1cccc([N+](=O)[O-])c1 (configuration not stated) [NILVADIPINE]	1.04
Cn1c(=O)c2[nH]cnc2n(C)c1=O.O [THEOPHYLLINE]	-0.70
Cn1c(=O)c2c(ncn2C)n(C)c1=O [CAFFEINE]	-0.70
C/C(=C\c1ccc(OCCN2CCOCC2)cc1)c1ccc2c(c1)C(C)(C)CCC2(C)C [MOFAROTENE]	0.00
CCOC(=O)C1=C(C)NC(C)=C(C(=O)OC)C1c1cccc([N+](=O)[O-])c1 (configuration not stated) [NITRENDIPINE]	0.91
Cc1cc(=O)n(-c2ccccc2)n1C [ANTIPYRINE]	0.00
O=C1Nc2ccc(Cl)cc2C(c2ccccc2Cl)=NC1O (configuration not stated) [LORAZEPAM]	1.26
COc1ccc([C@@H]2Sc3ccccc3N(CCN(C)C)C(=O)[C@@H]2OC(C)=O)cc1 [DILTIAZEM]	0.43
Cc1ccc(C(=O)c2cc(O)c(O)c([N+](=O)[O-])c2)cc1 [TOLCAPONE]	0.15

* * *

Listing of entries alongside the reported clearance.
# Experiment: clinical
# Details: human, in vivo
# Description: In vivo clearance in human
Reported property: clearance (mL/min/kg)

Molecule	Reported property	Units	Experimental result
COC(=O)C1=C(C#N)NC(C)=C(C(=O)OC(C)C)C1c1cccc([N+](=O)[O-])c1 (stereo unspecified)	clearance	mL/min/kg	20
Cc1cc(=O)n(-c2ccccc2)n1C [ANTIPYRINE]	clearance	mL/min/kg	0.5
Cc1ccc(C(=O)c2cc(O)c(O)c([N+](=O)[O-])c2)cc1	clearance	mL/min/kg	2.7
CC(C)(C)S(=O)(=O)C[C@@H](Cc1ccccc1)C(=O)N[C@@H](Cc1cnc[nH]1)C(=O)N[C@@H](CC1CCCCC1)[C@@H](O)[C@@H](O)C1CC1	clearance	mL/min/kg	19.6
O=C1Nc2ccc(Cl)cc2C(c2ccccc2Cl)=NC1O (stereo unspecified)	clearance	mL/min/kg	1.1
Cn1c(=O)c2[nH]cnc2n(C)c1=O.O	clearance	mL/min/kg	0.6
